Reference source: ChEMBL document CHEMBL4043259

Would you mind telling me the reported Kb of each entry?
biological target: P2Y purinoceptor 2 (Homo sapiens); experiment: Antagonist activity at human P2Y2R expressed in human Jurkat cells assessed as inhibition of UTP-activated intracellular calcium mobilization by fluo-3AM dye based fluorescence assay; type: functional, cell-based; settings: read-out: pA2 (converted)
Sequence (P41231 whole entry): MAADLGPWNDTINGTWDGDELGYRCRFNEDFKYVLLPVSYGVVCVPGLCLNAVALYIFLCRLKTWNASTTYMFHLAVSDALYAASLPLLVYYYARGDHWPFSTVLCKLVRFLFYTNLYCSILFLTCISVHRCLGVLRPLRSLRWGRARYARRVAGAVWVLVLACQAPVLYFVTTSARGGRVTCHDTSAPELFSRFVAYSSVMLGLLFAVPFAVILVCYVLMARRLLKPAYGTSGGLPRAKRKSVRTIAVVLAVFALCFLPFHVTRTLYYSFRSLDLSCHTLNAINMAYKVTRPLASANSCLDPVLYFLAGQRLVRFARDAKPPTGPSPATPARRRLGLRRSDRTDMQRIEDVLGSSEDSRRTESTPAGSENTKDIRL
Numbers only, in nM.

Worked examples, 4 compounds total:
compound | Kb, nM
Cc1ccc2c(c1)C=Cc1cc(C)ccc1C2c1cn(Cc2ccc(C(=O)Nc3nc(CC(=O)O)cs3)o2)c(=O)[nH]c1=S | 31.6
COc1ccc(C(c2ccc(OC)cc2)c2cn([C@@H]3O[C@H](COP(=O)(O)OP(=O)(O)C(Cl)(Cl)P(=O)(O)O)[C@@H](O)[C@H]3O)c(=O)[nH]c2=S)cc1 | 79.4
O=C(O)c1ccc(Cn2cc(C3c4ccccc4C=Cc4ccccc43)c(=S)[nH]c2=O)o1 | 1260
O=C(O)c1cccc(Cn2cc(C3c4ccccc4C=Cc4ccccc43)c(=S)[nH]c2=O)n1 | 3980

Look up Kb for the entries below, preserving their order.
1. O=c1[nH]c(=S)c(C(c2ccc(Cl)cc2)c2ccc(Cl)cc2)cn1[C@@H]1O[C@H](COP(=O)(O)OP(=O)(O)C(Cl)(Cl)P(=O)(O)O)[C@@H](O)[C@H]1O
2. Cc1ccc2c(c1)C=Cc1cc(C)ccc1C2c1cn(Cc2ccc(C(=O)N[C@@H](CC(=O)O)C(=O)O)o2)c(=O)[nH]c1=S
3. O=C(O)c1csc(Cn2cc(C3c4ccccc4C=Cc4ccccc43)c(=O)[nH]c2=O)n1
4. O=C(O)c1ccc(Cn2cc(C3c4ccc(Cl)cc4C=Cc4cc(Cl)ccc43)c(=S)[nH]c2=O)o1
5. O=C(O)COc1cccc(Cn2cc(C3c4ccccc4C=Cc4ccccc43)c(=S)[nH]c2=O)c1
6. Cc1ccc(C(c2ccc(C)cc2)c2cn([C@@H]3O[C@H](COP(=O)(O)OP(=O)(O)C(Cl)(Cl)P(=O)(O)O)[C@@H](O)[C@H]3O)c(=O)[nH]c2=S)cc1
7. O=C(O)c1cccc(Cn2cc(C3c4ccccc4C=Cc4ccccc43)c(=S)[nH]c2=O)c1

12.6
25.1
39800
200
2510
15.8
3980

Look up Kb for the entries below, preserving their order.
1. Cc1ccc2c(c1)C=Cc1cc(C)ccc1C2c1cn(Cc2ccc(C(=O)Nc3nc(CC(=O)N[C@@H](CC(=O)O)C(=O)O)cs3)o2)c(=O)[nH]c1=S
2. O=C(O)c1csc(Cn2cc(C3c4ccccc4C=Cc4ccccc43)c(=S)[nH]c2=O)n1
3. O=c1[nH]c(=S)c(C2c3ccccc3C=Cc3ccccc32)cn1[C@@H]1O[C@H](CO)[C@@H](O)[C@H]1O

1. 63.1
2. 2000
3. 20000

Look up Kb for the entries below, preserving their order.
1. O=C(O)c1coc(Cn2cc(C3c4ccccc4C=Cc4ccccc43)c(=S)[nH]c2=O)n1
2. Cc1ccc2c(c1)C=Cc1cc(C)ccc1C2c1cn(Cc2nc(C(=O)N[C@@H](CC(=O)O)C(=O)O)cs2)c(=O)[nH]c1=S
3. O=c1[nH]c(=S)c(C2c3ccccc3Oc3ccccc32)cn1[C@@H]1O[C@H](COP(=O)(O)OP(=O)(O)C(Cl)(Cl)P(=O)(O)O)[C@@H](O)[C@H]1O
4. Cc1ccc2c(c1)C=Cc1cc(C)ccc1C2c1cn(Cc2ccc(C(=O)O)o2)c(=O)[nH]c1=S

1580
39.8
50.1
100

* * *

assay: Bioavailability in rat; type: ADME, organism-based; details: in vivo
test_readout: bioavailability (%)
Numbers only, in %.

So what's the measured bioavailability for this one? Cc1ccc2c(c1)C=Cc1cc(C)ccc1C2c1cn(Cc2ccc(C(=O)Nc3nnn[nH]3)o2)c(=O)[nH]c1=S
0

* * *

assay: Clearance in rat administered via iv; assay type: ADME; details: in vivo
test_readout: clearance (mL/min/kg)
Numbers only, in mL/min/kg.

So what's the measured clearance for this one? Cc1ccc2c(c1)C=Cc1cc(C)ccc1C2c1cn(Cc2ccc(C(=O)Nc3nnn[nH]3)o2)c(=O)[nH]c1=S
75

* * *

assay: Volume of distribution at steady state in rat administered via iv; format: ADME; details: in vivo, read-out: Vdss
test_readout: Vd

So what's the measured Vd for this one? Cc1ccc2c(c1)C=Cc1cc(C)ccc1C2c1cn(Cc2ccc(C(=O)Nc3nnn[nH]3)o2)c(=O)[nH]c1=S
4.34 L/kg

* * *

target: P2Y purinoceptor 2 (Homo sapiens); assay: Antagonist activity at human P2Y2R expressed in human Jurkat cells assessed as inhibition of UTP-activated intracellular calcium mobilization by fluo-3AM dye based fluorescence assay; assay type: functional, cell-based; details: read-out: pA2 (converted)
Would you mind telling me the reported log10(Kb) of each entry?
The common logarithm of Kb in nM is what is listed.

Worked examples, 3 compounds total:
compound | log10(Kb)
O=c1[nH]c(=S)c(C2c3ccccc3C=Cc3ccccc32)cn1[C@@H]1O[C@H](COP(=O)(O)OP(=O)(O)C(Cl)(Cl)P(=O)(O)O)[C@@H](O)[C@H]1O | 0.50
O=c1[nH]c(=S)c(C2c3ccccc3CCc3ccccc32)cn1[C@@H]1O[C@H](COP(=O)(O)OP(=O)(O)C(Cl)(Cl)P(=O)(O)O)[C@@H](O)[C@H]1O | 1.00
O=c1[nH]c(=S)c(C(c2ccc(Cl)c(Cl)c2)c2ccc(Cl)c(Cl)c2)cn1[C@@H]1O[C@H](COP(=O)(O)OP(=O)(O)C(Cl)(Cl)P(=O)(O)O)[C@@H](O)[C@H]1O | 1.30

Look up log10(Kb) for the entries below, preserving their order.
1. Cc1ccc2c(c1)C=Cc1cc(C)ccc1C2c1cn(Cc2nc(C(=O)O)cs2)c(=O)[nH]c1=S
2. O=C(O)Cc1cccc(Cn2cc(C3c4ccccc4C=Cc4ccccc43)c(=S)[nH]c2=O)c1
3. O=c1[nH]c(=S)c(C2c3ccccc3-c3ccccc32)cn1[C@@H]1O[C@H](COP(=O)(O)OP(=O)(O)C(Cl)(Cl)P(=O)(O)O)[C@@H](O)[C@H]1O
4. O=C(O)c1cc(Cn2cc(C3c4ccccc4C=Cc4ccccc43)c(=S)[nH]c2=O)cs1
5. O=C(O)c1cnc(Cn2cc(C3c4ccccc4C=Cc4ccccc43)c(=S)[nH]c2=O)s1
6. O=c1[nH]c(=S)c(C(c2ccccc2)c2ccccc2)cn1[C@@H]1O[C@H](COP(=O)(O)OP(=O)(O)C(Cl)(Cl)P(=O)(O)O)[C@@H](O)[C@H]1O

1: 2.40; 2: 3.30; 3: 1.80; 4: 3.40; 5: 3.80; 6: 3.00
